- assay: self-splicing fitness, log relative to wild type (ln ratio); higher = more splicing; Tetrahymena group I intron in knt gene, E. coli kanamycin selection, DiMSum; sequences stand for … in CUCUCU…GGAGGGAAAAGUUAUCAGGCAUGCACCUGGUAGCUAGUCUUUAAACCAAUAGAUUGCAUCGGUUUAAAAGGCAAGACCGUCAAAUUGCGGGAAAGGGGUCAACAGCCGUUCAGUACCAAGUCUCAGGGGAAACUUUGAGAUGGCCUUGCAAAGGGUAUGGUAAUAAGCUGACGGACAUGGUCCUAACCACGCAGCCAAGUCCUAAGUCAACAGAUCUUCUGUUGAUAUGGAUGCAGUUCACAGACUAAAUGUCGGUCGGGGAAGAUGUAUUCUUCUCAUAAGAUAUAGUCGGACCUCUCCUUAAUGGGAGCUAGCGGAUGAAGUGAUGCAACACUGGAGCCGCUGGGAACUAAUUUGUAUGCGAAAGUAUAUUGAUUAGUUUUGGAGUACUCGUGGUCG;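 also: selection with 25 µg/mL kanamycin versus none on LB agar overnight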
- experimental conditions: 37 °C
List of self-splicing fitness (ln) values.
quantity name: self-splicing fitness (ln)

{"columns": ["chain", "result"],
 "data": [
  ["CAGAAGCAAUAUUACGGUGC", -3.04],
  ["GGCAAGCAAUAUUACGAUGU", -1.44],
  ["UAACAGCAAUAUUACGCAGG", -0.402],
  ["ACCGAGCAAUAUUACGACAA", -2.4],
  ["CUGCAGCAAUAUUACGUCGC", -2.83],
  ["UCUUAGCAAUAUUACGCCUU", -1.86],
  ["UGACAGCAAUAUUACGCCUA", 0.414],
  ["UAUGAGCAAUAUUACGGUGG", -2.72],
  ["UUAAAGCAAUAUUACGGUUU", -1.22],
  ["CCAUAGCAAUAUUACGACUG", -0.0816],
  ["ACUAAGCAAUAUUACGUCCG", -0.322],
  ["GGUCAGCAAUAUUACGCAGG", -3.55],
  ["UAUUAGCAAUAUUACGCAUA", -0.355],
  ["UGAGAGCAAUAUUACGUAGG", -1.12],
  ["AACUAGCAAUAUUACGGUUU", -2.62],
  ["AGCGAGCAAUAUUACGCAUG", -1.48],
  ["GUACAGCAAUAUUACGGGGA", -2.33],
  ["GAUGAGCAAUAUUACGAGUC", -2.21],
  ["GUUCAGCAAUAUUACGCAGA", -1.3],
  ["UAGUAGCAAUAUUACGGACU", 0.484],
  ["UGAGAGCAAUAUUACGGUUA", -1.11],
  ["UGUUAGCAAUAUUACGUGAC", -2.01],
  ["GGGGAGCAAUAUUACGCGAU", -0.791],
  ["UCCCAGCAAUAUUACGCCAG", -2.27],
  ["CUGAAGCAAUAUUACGGACG", 0.166],
  ["GACCAGCAAUAUUACGCCUG", -0.614],
  ["UGGCAGCAAUAUUACGUGAU", -1.29],
  ["CCAUAGCAAUAUUACGGUCU", -2.53],
  ["UGCAAGCAAUAUUACGACUC", -1.56],
  ["GCAUAGCAAUAUUACGUGGC", -2.15],
  ["GUGCAGCAAUAUUACGUUCA", -0.181],
  ["AUUGAGCAAUAUUACGGCUC", -1.77],
  ["UACGAGCAAUAUUACGCCUC", -2.06],
  ["UUGUAGCAAUAUUACGGAUA", -1.42],
  ["UUCGAGCAAUAUUACGGACA", -1.79],
  ["AACCAGCAAUAUUACGAGAU", -0.239],
  ["UAUAAGCAAUAUUACGAUUG", -0.744],
  ["AUCCAGCAAUAUUACGGUCA", 0.168],
  ["GCUAAGCAAUAUUACGGCAG", -2.85],
  ["ACUGAGCAAUAUUACGAUUC", -1.57],
  ["GGAGAGCAAUAUUACGCGAU", -1.64],
  ["AAACAGCAAUAUUACGAUCC", -0.41],
  ["AAUCAGCAAUAUUACGUACG", -0.149],
  ["CCUAAGCAAUAUUACGCUAA", -2.31],
  ["UAUAAGCAAUAUUACGUUAA", -1.5],
  ["GGGAAGCAAUAUUACGGCCG", -0.0913],
  ["GGUCAGCAAUAUUACGGUGA", -1],
  ["CCAUAGCAAUAUUACGCAUA", -2.72],
  ["GAUCAGCAAUAUUACGCGCC", -0.763],
  ["AGAUAGCAAUAUUACGACGG", -1.55],
  ["GCAAAGCAAUAUUACGCUUG", -2.64],
  ["ACAAAGCAAUAUUACGUGGG", -2.47],
  ["AUUGAGCAAUAUUACGGGUA", -2.06],
  ["GAUUAGCAAUAUUACGUGAG", 0.0593],
  ["CAGUAGCAAUAUUACGCCGG", -0.309],
  ["UCGCAGCAAUAUUACGUUGA", -1.06],
  ["UUUCAGCAAUAUUACGACAC", -2.97],
  ["GUUUAGCAAUAUUACGAACA", -1.24],
  ["GAUAAGCAAUAUUACGGACC", -1.4],
  ["UGUCAGCAAUAUUACGCGUC", -1.51]
]}

* * *

- assay: self-splicing fitness, log relative to wild type (ln ratio); higher = more splicing; Tetrahymena group I intron in knt gene, E. coli kanamycin selection, DiMSum; sequences stand for … in CUCUCU…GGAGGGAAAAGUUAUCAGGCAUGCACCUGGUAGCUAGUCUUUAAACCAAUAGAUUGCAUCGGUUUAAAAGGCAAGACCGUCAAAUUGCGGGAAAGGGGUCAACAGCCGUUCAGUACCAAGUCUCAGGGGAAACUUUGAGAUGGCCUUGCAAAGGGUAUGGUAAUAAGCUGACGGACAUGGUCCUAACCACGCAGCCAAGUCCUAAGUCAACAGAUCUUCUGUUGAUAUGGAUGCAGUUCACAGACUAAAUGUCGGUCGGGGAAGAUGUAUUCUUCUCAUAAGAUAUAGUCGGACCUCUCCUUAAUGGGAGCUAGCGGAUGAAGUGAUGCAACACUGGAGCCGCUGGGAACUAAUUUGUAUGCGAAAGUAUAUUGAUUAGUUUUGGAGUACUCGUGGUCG
- experimental conditions: 30 °C
quantity name: self-splicing fitness (ln)

{"columns": ["chain", "quantity name", "result"],
 "data": [
  ["CCUCAGCAAUAUUACGCAGA", "self-splicing fitness (ln)", -3.39],
  ["CCGAAGCAAUAUUACGAGCC", "self-splicing fitness (ln)", -3.7],
  ["CAACAGCAAUAUUACGACAA", "self-splicing fitness (ln)", -3.37],
  ["UUAUAGCAAUAUUACGCGUG", "self-splicing fitness (ln)", -0.968],
  ["CCCUAGCAAUAUUACGACGA", "self-splicing fitness (ln)", -3.12],
  ["UUCCAGCAAUAUUACGACUA", "self-splicing fitness (ln)", -0.435],
  ["UUUGAGCAAUAUUACGGUAG", "self-splicing fitness (ln)", -2.82],
  ["GAGCAGCAAUAUUACGACUU", "self-splicing fitness (ln)", -0.557],
  ["AUUAAGCAAUAUUACGUCCU", "self-splicing fitness (ln)", -0.24],
  ["GUAAAGCAAUAUUACGGAGC", "self-splicing fitness (ln)", -2.47],
  ["CACUAGCAAUAUUACGAUCG", "self-splicing fitness (ln)", 0.531]
]}

* * *

- assay: self-splicing fitness, log relative to wild type (ln ratio); higher = more splicing; Tetrahymena group I intron in knt gene, E. coli kanamycin selection, DiMSum; sequences stand for … in CUCUCU…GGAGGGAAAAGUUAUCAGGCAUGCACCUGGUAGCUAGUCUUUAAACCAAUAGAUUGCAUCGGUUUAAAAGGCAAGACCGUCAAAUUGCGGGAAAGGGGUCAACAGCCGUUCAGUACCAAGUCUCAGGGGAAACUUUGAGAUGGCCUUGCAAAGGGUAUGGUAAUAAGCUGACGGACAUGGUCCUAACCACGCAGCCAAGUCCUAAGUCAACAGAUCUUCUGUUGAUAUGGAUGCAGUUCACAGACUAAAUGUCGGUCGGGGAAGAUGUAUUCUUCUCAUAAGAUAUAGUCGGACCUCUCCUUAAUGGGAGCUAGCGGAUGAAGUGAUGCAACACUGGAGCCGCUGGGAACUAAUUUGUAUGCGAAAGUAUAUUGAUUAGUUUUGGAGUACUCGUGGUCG
- experimental conditions: 30 °C
quantity name: self-splicing fitness (ln)

{"columns": ["chain", "result"],
 "data": [
  ["CAGAAGCAAUAUUACGACUU", -0.506],
  ["ACAUAGCAAUAUUACGAUCG", 0.0966],
  ["GAGCAGCAAUAUUACGUGUC", -2.9],
  ["UUAAAGCAAUAUUACGAUUU", -0.89],
  ["GUCUAGCAAUAUUACGGGGU", -3.56],
  ["CGGAAGCAAUAUUACGCACU", -2.24],
  ["ACGCAGCAAUAUUACGGGUG", -1.56],
  ["GCGAAGCAAUAUUACGGCAA", -0.999],
  ["GGGAAGCAAUAUUACGGAAG", -0.00595],
  ["AGCCAGCAAUAUUACGGUCC", -1.12],
  ["AAUCAGCAAUAUUACGCGGA", -0.694],
  ["CCGCAGCAAUAUUACGAAGC", -3.14],
  ["AAGCAGCAAUAUUACGCACC", -0.735],
  ["ACGAAGCAAUAUUACGCGCU", -1.01],
  ["UCGUAGCAAUAUUACGCACG", -1.8],
  ["GCCAAGCAAUAUUACGAGGA", -1.37],
  ["CUGGAGCAAUAUUACGAUCG", -1.7],
  ["AAACAGCAAUAUUACGAAGG", -3.85],
  ["GCUCAGCAAUAUUACGAUCG", -1.02],
  ["ACACAGCAAUAUUACGAUAC", -2.58],
  ["AUAAAGCAAUAUUACGUUUA", -0.935],
  ["AGCAAGCAAUAUUACGAAAU", -2.42],
  ["AGACAGCAAUAUUACGAGGC", -3.34],
  ["UACCAGCAAUAUUACGAGUC", -1.59],
  ["AGGCAGCAAUAUUACGUGAC", -3.86],
  ["AAUUAGCAAUAUUACGAUGG", -3.31],
  ["UGGAAGCAAUAUUACGUGCA", -0.0243],
  ["ACCUAGCAAUAUUACGAAUG", -3.04],
  ["AGGAAGCAAUAUUACGCAUA", -2.39]
]}
